experiment: amyloid nucleation score (Sup35N fusion, yeast selection) (log enrichment); library NNK2; higher = more nucleation; inactive = no reads after selection;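 also: zero at mode of non-aggregating sequences after 7 days selection at 30°C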
MEASUREMENT LABEL: amyloid nucleation score

SUBSTANCE | amyloid nucleation score
NRDVFWRFLVTTVVYELSSK | inactive
SYVNKWAECLSCTTEYTMSK | inactive
CNVASFELVLRD | inactive
QSFFLN | inactive

substance RYVNVCYNSSAWGLFGTTHI , amyloid nucleation score observed: inactive

Looking up HMQPYIRESISVG , I found its amyloid nucleation score recorded as inactive

In plain terms, WFMERVFYNSTNSTQLFEWV has a documented amyloid nucleation score of inactive

====

assay: amyloid nucleation score (Sup35N fusion, yeast selection) (log enrichment); library NNK1; higher = more nucleation; inactive = no reads after selection
MEASUREMENT LABEL: amyloid nucleation score
Returns: the value as a bare number; no unit string appended.

Sample LEGHNCADQLLSFLTSSYSL ; amyloid nucleation score observed: 1.34

Summary for this sequence, SFANVGSVGWAMYSGYTSRT : amyloid nucleation score is 0.002

For reference, reported amyloid nucleation score for KLQLVSLWQ stands at 2.77

The sequence listed as VLSAGVCFMTRVRSVFDGVH has a reported amyloid nucleation score of 2.14

Noted for PYYFEGGEAQTPRHSDGQWM : its amyloid nucleation score reads -0.769

====

assay: amyloid nucleation score (Sup35N fusion, yeast selection) (log enrichment); library NNK1; higher = more nucleation; inactive = no reads after selection
MEASUREMENT LABEL: amyloid nucleation score
Response field accepts a number only; no unit should be typed.

Note to self: amyloid nucleation score recorded for INYRLYGVIGVAGTGPG was 0.1

// QTDLLYSIYRSKDNSGLNLV : amyloid nucleation score value = 0.75

The value of amyloid nucleation score measured for the sequence FFRRDFFFYNSLGMH turned out to be 0.233

The reported value for QVLSHSKHNIVLDYHLETCG in terms of amyloid nucleation score is 1.84

====

Would you kindly list amyloid nucleation score for each of these substances?
experiment: amyloid nucleation score (Sup35N fusion, yeast selection) (log enrichment); library NNK2; higher = more nucleation; inactive = no reads after selection
// no unit string in output, number only

Lookup result for FKGHHGHKVWETH ; measured amyloid nucleation score: -0.145

So for LYLYPAMFVSWLSGLPTRFC , the logged amyloid nucleation score turned out to be -0.406

Please fill in: amyloid nucleation score reported for WSGKRAFNYINGGLGMAKEL = 4.11

According to the records, this substance GASFMSRNIRTWMTMWCDLK displays amyloid nucleation score of 0.012

amyloid nucleation score in this record for FIPYNSW : 0.689

====

test: amyloid nucleation score (Sup35N fusion, yeast selection) (log enrichment); library NNK3; higher = more nucleation; inactive = no reads after selection
MEASUREMENT LABEL: amyloid nucleation score

Examples from the recorded data:
SUBSTANCE | MEASUREMENT LABEL | OBSERVED MEASUREMENT
PRPSYWHRYSWSTTIVGGIS | amyloid nucleation score | inactive
SWYDHWSLIQDGLKRVNGG | amyloid nucleation score | inactive
RHELTNRREK | amyloid nucleation score | inactive
SDYLRMVVTYPQTLLYQGTK | amyloid nucleation score | inactive

Per the records, this substance ( RGRYWWFYYLAFICMKWYSG ) has amyloid nucleation score equal to inactive

Entry SRCNVYKKVVAYVLRRLTPE — recorded amyloid nucleation score = 0.166

Briefly, amyloid nucleation score measured for TENCEFFTNPPARPYG : inactive

// sample LLLPWCYFRRKMGRR , its amyloid nucleation score was inactive

Briefly, amyloid nucleation score measured for IFVRSLAQLGLIFDFHIFWE : inactive

// recorded amyloid nucleation score for CLGYRFVWGVPFVKFDRIIW : inactive

Record AIRPKSGAWSHLCYASIG . Reported amyloid nucleation score: inactive

Quick note, amyloid nucleation score for HSLTENAKREIT landed at inactive

Please fill in: amyloid nucleation score reported for VTVSYIVNGMTSLFQVDVAS = inactive

According to the records, this substance IISSSL displays amyloid nucleation score of inactive

// sample GDTAPNSSTISLTVFFPLFA , its amyloid nucleation score was 0.697

Form: substance = LRLVGLLMGNIFFELYGDLC ; amyloid nucleation score = inactive

====

assay: amyloid nucleation score (Sup35N fusion, yeast selection) (log enrichment); library NNK2; higher = more nucleation; inactive = no reads after selection
MEASUREMENT LABEL: amyloid nucleation score
Could you keep your reply to the number by itself?

Documented amyloid nucleation score of IYDCDTTMVSNNMRYILVLH : -0.858

In plain terms, FGLQMQAWREKDHQENGLIQ has a documented amyloid nucleation score of 0.798

For this sequence ( SGIWFQQDMMN ), measured amyloid nucleation score is -0.258

# amyloid nucleation score of IVRRGAYSTGWMVMMLLQSL = 0.859

Entry under test: TFAIIQYRNCLVTPISFKHF . Its amyloid nucleation score was 6.5

Value of amyloid nucleation score reported for the sequence ITQRFKTWRCGGGDEVRQAN is 0.239

amyloid nucleation score in this record for LKMGVGCRGRLLWCSLTCMR : 1.46

For this sequence ( KWRAFYPSTGSLRVEILSF ), measured amyloid nucleation score is -1.22

The value of amyloid nucleation score measured for the sequence ENCFVSICVGSATLGMCSSG turned out to be 8.02

Memo: SWATLRVCNIFCMITCSYFM , reported amyloid nucleation score: 1.51

Documented amyloid nucleation score of FMNLTLGIYKDFITFMMYVS : 1.83

Lab note: VGRVNIVSDLMVPNSHYICS gave amyloid nucleation score of -0.056

For this sequence ( VMFSVDHRLTQ ), measured amyloid nucleation score is -0.354

Entry VIYLHVYGCVNLVSVLVHSL ; amyloid nucleation score = 1.87

What the record says about LSFPHVLYFETCPCMARVVA : amyloid nucleation score is -0.081

So for TSVASGRNGNSPVHNALAWG , the logged amyloid nucleation score turned out to be 0.2

Entry EIYCCAYPLFCVWVVTGIRL — recorded amyloid nucleation score = 1.62

Recorded result, APLNLSFIHPTFIWLYCLLG , amyloid nucleation score: 4.27

====

experiment: amyloid nucleation score (Sup35N fusion, yeast selection) (log enrichment); library NNK2; higher = more nucleation; inactive = no reads after selection
MEASUREMENT LABEL: amyloid nucleation score
// no unit, no text: just the number

The substance listed as TFLTLA shows amyloid nucleation score equal to 0.979

# amyloid nucleation score (substance: HLWSLRGPIAFIENRLSVWI ) is 0.605

Reported amyloid nucleation score for SADRECCQHEFGASPRLRVG was 4.91

Recorded amyloid nucleation score (substance SFLSRL ): -0.4

So for SYLLSKMQHFLMVTK , the logged amyloid nucleation score turned out to be -1.32

Measured amyloid nucleation score of LRYRVMT : 1.23

// sample SIFPRTCSNSACLWISSRKL , its amyloid nucleation score was 4.26

Per the records, this substance ( DIVQIWCWFRGC ) has amyloid nucleation score equal to 10.2

Value of amyloid nucleation score reported for the substance QGYAYMCTGSFFFSLLQVLS is 3.79

Reported amyloid nucleation score for LRQGPTHFLYLGCYFVDAMR was 7.12

Lab note: measured amyloid nucleation score of YAVWLDMGFILIIACVGKYN was -0.747

Recorded result, NNCVQTGSGGGGRCLRDTCG , amyloid nucleation score: 3.8

In plain terms, HFRVYSWIQVK has a documented amyloid nucleation score of 0.337

Kindly note the recorded amyloid nucleation score for AGFTLYFGMTRNYQYSDCSP , which is 4.23

// field: amyloid nucleation score; key: NTVFLLSFGCCEYYRFWGYL ; value = 8.34

Value of amyloid nucleation score reported for the substance SGRHVNVLYYNFNGPDDQFK is 6.87

====

test: amyloid nucleation score (Sup35N fusion, yeast selection) (log enrichment); library NNK3; higher = more nucleation; inactive = no reads after selection
MEASUREMENT LABEL: amyloid nucleation score

ENTRY SEQUENCE | OBSERVED MEASUREMENT
LMFDVFLMSTFVFDNL | inactive
GVFRPMWVLARVDSQNLASL | inactive
QNNRHISHLGLQGDEQALVY | inactive
GNIEGVRNVVALTMHVVNWV | 2.2

====

experiment: amyloid nucleation score (Sup35N fusion, yeast selection) (log enrichment); library NNK1; higher = more nucleation; inactive = no reads after selection
Output: class label from amyloid nucleation score. Mapping: low = under -0.3, mid = from -0.3 up to 0.5, high = 0.5 and over

# classify by amyloid nucleation score band: PVLKPGFL
mid

Quick check: band for YRGWVVQGIHLKFSCFAELR
mid

State the class of the sequence shown: SLGVYGQGSGWMLVVNVWEV
high

Class for KTRNCTNFWLQRGTW ?
mid

# bin label for MYISYLYFCYKRSMYFG
high

Class? Entry: CMGLFVTSSL
mid

Form: Item = SMGWYGYFLYLNCDDSFPYW ; Class = ?
high

Sort FAESSVVSFHLCRQMFASTA into one of the categories.
low

Which of the defined bands does the recorded amyloid nucleation score of WINKYYDLN sit within?
mid

Would you mind sorting RIIQGFLAM into the appropriate category?
mid

Each sequence maps to one class by amyloid nucleation score. Which class for GCRGFLIPRMVYS ?
low

Which bin, given its amyloid nucleation score, does PYSLQSTLHVRER occupy?
mid
